# %Inh annotations
- Tested on: PIK3CD
- experimental_setup: concentration: 1 μM,replicates: in singlicate; n = 1;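 note: KINOMEscan kinase panel screen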

{"columns": ["compound", "%Inh (%)"],
 "data": [
  ["CCNCC(Cc1ccccc1)NC(=O)c1cc(Br)c(-c2ccnc3[nH]ccc23)s1.Cl.Cl (stereo not shown) [GSK1383280]", 0],
  ["FC(F)(F)c1cc(Br)cc(Nc2nccc(-c3cnn4ncccc34)n2)c1 [GW810578]", 51],
  ["CCOC(=O)N1CCC(n2cnc(-c3ccc(F)cc3)c2-c2ccnc(N)n2)CC1 [SB-219952]", 16],
  ["COC(=O)c1cccc(NC(=O)NC2CCN(c3ccnc(Nc4cc(OC)c(OC)c(OC)c4)n3)C2)c1 (stereo not shown) [GSK1379767]", 35]
]}

----------
- System: TRKC
- Construct: gene NTRK3
- experimental_setup: concentration: 1 μM,replicates: in singlicate; n = 1
Lab note: compare %Inh against 10%. Equal or greater, write Yes. Smaller, write No.

{"columns": ["compound", "assay_system", "class_name"],
 "data": [
  ["COC(=O)Nc1nc2cc(Oc3ccc(NC(=O)Nc4cc(C(F)(F)F)ccc4Cl)cc3)ccc2[nH]1.Cl [GW697465]", "TRKC", "Yes"],
  ["O=C(Nc1cccc(Oc2ccc3nccn3n2)c1)Nc1cccc(C(F)(F)F)c1", "TRKC", "Yes"],
  ["CCCC(=O)Nc1n[nH]c2ncccc12 [SB-601436]", "TRKC", "Yes"],
  ["O=C1NCCc2[nH]c(-c3ccncc3)cc21", "TRKC", "Yes"],
  ["COc1cc2c(Nc3ccc(NC(=O)c4ccccc4)cc3)ncnc2cc1OCCCN1CCOCC1 [GSK301329]", "TRKC", "No"],
  ["COc1cc2nccc(Nc3ccc(Oc4ccccc4)cc3)c2cc1OC.Cl [GI261656]", "TRKC", "No"],
  ["N#Cc1cccc(C(=O)NC2CCN(c3ccnc(Nc4ccc(F)cc4)n3)C2)c1 (stereo not drawn) [GSK1379708]", "TRKC", "Yes"],
  ["C[C@@H]1CCN(C(=O)N2CCCC2)C[C@@H]1N(C)c1ncnc2[nH]ccc12", "TRKC", "Yes"],
  ["CS(=O)(=O)Nc1ccc(-c2ccnc3[nH]ccc23)cc1 [GSK993273]", "TRKC", "Yes"]
]}

----------
The entries below come with measured %Inh values attached.
- System: VPS34
- Construct: gene PIK3C3
- experimental_setup: concentration: 1 μM,replicates: in singlicate; n = 1

{"columns": ["cpd_smiles", "unit_annotation", "%Inh"],
 "data": [
  ["O=C(Nc1ccc(Oc2ccc3nc(NC(=O)C4CC4)cn3n2)c(F)c1)c1cccn(-c2ccccc2)c1=O", "%", 44],
  ["CN(c1cccc(CNc2nc(Nc3ccc4c(c3)CC(=O)N4)ncc2C(F)(F)F)c1)S(C)(=O)=O", "%", 0],
  ["COc1cc2nccc(Nc3ccc(Oc4ccccc4)cc3)c2cc1OC.Cl", "%", 10],
  ["O=c1[nH]cc(-c2ccc(O)cc2)c2sc(-c3ccncc3)cc12", "%", 0],
  ["O=C(Nc1ccccc1)c1cccc(Oc2ccc3nccn3n2)c1", "%", 6],
  ["C[C@@H](Oc1cc(-n2cnc3ccc(-c4ccncc4)cc32)sc1C(N)=O)c1ccccc1Cl", "%", 96.4],
  ["Cn1ccc2ncnc(Oc3ccc(NC(=O)Nc4ccnc(C(F)(F)F)c4)c(Cl)c3)c21", "%", 0],
  ["Cn1ccc2ncnc(Oc3ccc(NC(=O)Nc4cncc(C(F)(F)F)c4)c(Cl)c3)c21", "%", 0],
  ["Cc1ccc(C(=O)Nc2ccc(Oc3ccc4nc(NC(=O)C5CC5)cn4c3)c(F)c2)c(=O)n1-c1ccccc1", "%", 43],
  ["Cc1ccc(CC(=O)N2CCc3cc(-c4cn(C)c5ncnc(N)c45)ccc32)cc1", "%", 0],
  ["O=C(NOCC1CC1)c1cc(Br)c(F)c(F)c1Nc1ccc(I)cc1Cl", "%", 0],
  ["O=C(Nc1cccc(C(F)(F)F)c1)c1cccc(Oc2ccc3nccn3n2)c1", "%", 35],
  ["Cc1cccc2c(-c3ccncc3)c(-c3ccc(F)cc3)nn12.Cl", "%", 18],
  ["CC(=O)Nc1nc2cnc(Nc3cc(NC(=O)c4cccc(CC(C)(C)C#N)c4)ccc3C)nc2s1", "%", 11],
  ["CC(C)S(=O)(=O)N1CCN(Cc2ccc3c(c2)nc(NC(=O)c2ccsc2)n3C[C@H](O)c2ccccc2)CC1", "%", 18],
  ["Cc1ccc(Nc2ccnc(Nc3ccc4c(c3)CS(=O)(=O)C4)n2)cc1O.Cl", "%", 76],
  ["O=C(Nc1cccc(Oc2ccc3nccn3n2)c1)Nc1cccc(C(F)(F)F)c1", "%", 14]
]}

----------
- System: CDK9
- experimental_setup: concentration: 1 μM,replicates: in singlicate; n = 1
Each entry below lists one item and its recorded %Inh value.

{"columns": ["molecule", "%Inh"],
 "data": [
  ["Cn1ccc2ncnc(Oc3ccc(NC(=O)Nc4cncc(C(F)(F)F)c4)c(Cl)c3)c21", "0%"],
  ["C[C@@H]1CCN(C(=O)N2CCCC2)C[C@@H]1N(C)c1ncnc2[nH]ccc12", "0%"],
  ["CN(c1ccc2c(c1)nc(NCc1ccc(F)cc1)n2C)c1ccnc(Nc2ccc(CS(C)(=O)=O)cc2)n1.Cl [GW813244]", "57%"],
  ["CS(=O)(=O)Nc1ccc(-c2ccnc3[nH]ccc23)cc1 [GSK993273]", "0%"],
  ["O=C(NOCC1CC1)c1cc(Br)c(F)c(F)c1Nc1ccc(I)cc1Cl", "0%"],
  ["Cc1ccc(Nc2ccnc(Nc3ccc4c(c3)CS(=O)(=O)C4)n2)cc1O.Cl [GW579362]", "37%"],
  ["CC(=O)Nc1ccc(-c2cc3ncnc(SCC(=O)O)c3s2)cc1", "85%"],
  ["COc1cc2c(Nc3ccc(NC(=O)c4ccccc4)cc3)ncnc2cc1OCCCN1CCOCC1 [GSK301329]", "0%"],
  ["Nc1nccc(-c2ccc3c(N)n[nH]c3c2)n1 [GSK1034945]", "2%"]
]}

----------
- System: PKN1
- experimental_setup: concentration: 1 μM,replicates: in singlicate; n = 1
readout_type: %Inh (%)

{"columns": ["compound", "unit_annotation", "measured_value"],
 "data": [
  ["Cc1n[nH]c2cc(Nc3ccnc(Nc4cccc(CN5CCOCC5)c4)n3)ccc12", "%", 46],
  ["Cc1ccc2c(-c3ccnc(Nc4ccc(C(F)(F)F)cc4)n3)cnn2n1", "%", 0],
  ["C[C@@H]1CNc2c(sc3ccc4nc(-c5ccncc5)ccc4c23)C(=O)N1", "%", 7],
  ["CC(=O)Nc1nc2cnc(Nc3cc(NC(=O)c4cccc(CC(C)(C)C#N)c4)ccc3C)nc2s1", "%", 21],
  ["CCCC(=O)Nc1n[nH]c2ncccc12", "%", 0],
  ["CCOC(=O)N1CCC(n2cnc(-c3ccc(F)cc3)c2-c2ccnc(N)n2)CC1", "%", 0],
  ["Cc1nnc(-c2ccc3occ(-c4ccc(S(C)=O)cc4)c3n2)o1 (centres unmarked)", "%", 0],
  ["CN1CCN(CCCNc2nccc(-c3c(-c4ccc(F)cc4)nn4cc(C(N)=O)ccc34)n2)CC1", "%", 13],
  ["Cc1ccc(CC(=O)N2CCc3cc(-c4cn(C)c5ncnc(N)c45)ccc32)cc1", "%", 0],
  ["CC(=O)Nc1ccc(-c2cc3ncnc(SCC(=O)O)c3s2)cc1", "%", 12],
  ["COC(=O)c1cccc(NC(=O)NC2CCN(c3ccnc(Nc4cc(OC)c(OC)c(OC)c4)n3)C2)c1 (centres unmarked)", "%", 7],
  ["COc1cc2c(Nc3ccc(NC(=O)c4ccccc4)cc3)ncnc2cc1OCCCN1CCOCC1", "%", 0],
  ["Nc1nccc(-c2ccc3c(N)n[nH]c3c2)n1", "%", 0],
  ["COc1cccc(OC)c1C(=O)Nc1cccc(-c2nn3ccccc3c2-c2ccnc(Nc3cccc(F)c3)n2)c1", "%", 0],
  ["C[C@@H](Oc1cc(-n2cnc3cc(-c4ccncc4)ccc32)sc1C(N)=O)c1ccccc1Cl", "%", 15],
  ["CS(=O)(=O)c1cccc(CNc2nc(Nc3ccc4c(c3)[C@@H]3C[C@@H]4CNC3=O)ncc2C(F)(F)F)c1", "%", 56],
  ["CCNCC(Cc1ccccc1)NC(=O)c1cc(Br)c(-c2ccnc3[nH]ccc23)s1.Cl.Cl (centres unmarked)", "%", 39]
]}

----------
- Tested on: S6K1
- experimental_setup: concentration: 1 μM,replicates: in singlicate; n = 1
readout_type: %Inh

{"columns": ["compound", "measured_value"],
 "data": [
  ["NC(=O)Nc1sc(-c2ccc(F)cc2)cc1C(N)=O", "3%"],
  ["COc1cc(Nc2nccc(N3CCC(NC(=O)c4cccc(C#N)c4)C3)n2)cc(OC)c1OC (stereo not shown)", "0%"],
  ["CN1CCN(CCNc2nc3cc(Oc4ccc(NC(=O)Nc5cc(C(F)(F)F)ccc5F)cc4)ccc3[nH]2)CC1.Cl.Cl", "0%"],
  ["Cn1ccc2ncnc(Oc3ccc(NC(=O)Nc4cnn(C(C)(C)C)c4)c(Cl)c3)c21", "1%"]
]}
